Provide the recorded EC50 for the entries that follow.
# System: cultured nerve cells
# PROTOCOL SUMMARY: Action of protecting cultured nerve cells from glutamic acid toxicity (LDH leakage)
# Type: cell-based, Wistar rat
# CONDITIONS USED: rat fetal cerebral cortex cells, 10 mM glutamic acid, 24 hours, read-out: ED50 (the source's name)
One number for each entry, in nM.

Record excerpt, results attached:
>  <COMPOUND>
O=C(NCCCn1c2c(c3ccc4ccccc4c31)C[C@@]1(O)[C@H]3Cc4ccc(O)c5c4[C@@]1(CCN3CC1CC1)[C@H]2O5)c1cccnc1 [Compound 66]

>  <UNIT ANNOTATION>
nM

>  <ENDPOINT RESULT>
400

$$$$
>  <COMPOUND>
Cn1c2c(c3cc4c5c(cccc5c31)-c1ccccc1-4)C[C@@]1(O)[C@H]3Cc4ccc(O)c5c4[C@@]1(CCN3CC1CC1)[C@H]2O5 [Compound 77]

>  <UNIT ANNOTATION>
nM

>  <ENDPOINT RESULT>
160

$$$$
>  <COMPOUND>
Oc1ccc2c3c1O[C@H]1c4c(c5ccc6ccccc6c5n4CCc4ccccc4)C[C@@]4(O)[C@@H](C2)N(CC2CC2)CC[C@]314 [Compound 80]

>  <UNIT ANNOTATION>
nM

>  <ENDPOINT RESULT>
37

$$$$
>  <COMPOUND>
O=C(/C=C/c1cccc(C(F)(F)F)c1)NCCCn1c2c(c3ccccc31)C[C@@]1(O)[C@H]3Cc4ccc(O)c5c4[C@@]1(CCN3CC1CC1)[C@H]2O5 [Compound 63]

>  <UNIT ANNOTATION>
nM

>  <ENDPOINT RESULT>
150

$$$$

Working through the 3 compounds below one at a time, give EC50 for each.
1. Oc1ccc2c3c1O[C@H]1c4c(c5ccc6ccccc6c5n4CCCNC(=S)NCc4ccccc4)C[C@@]4(O)[C@@H](C2)N(CC2CC2)CC[C@]314 [Compound 67]
2. Oc1ccc2c3c1O[C@H]1c4c(c5ccccc5n4Cc4ccccc4)C[C@@]4(O)[C@@H](C2)N(CC2CC2)CC[C@]314 [Compound 68]
3. Oc1ccc2c3c1O[C@H]1c4[nH]c5cc(C6CCCCC6)ccc5c4C[C@@]4(O)[C@@H](C2)N(CC2CC2)CC[C@]314 [Compound 5]

27
91
120

Hello, the source for this data is patent US6156762A, in case you need it.
